melting point values for the compounds below.
ENDPOINT_LABEL: melting point

1) O=C1O[C@@H](CNC(=S)C(F)F)CN1c1ccc(N2CCS(=O)(=O)CC2)c(F)c1; 146 to 147 °C
2) O=C1O[C@@H](CNC(=S)C(F)F)CN1c1ccc(C2CCS(=O)(=O)CC2)c(F)c1; 168 to 169 °C
3) O=C1O[C@@H](CNC(=S)C(F)F)CN1c1ccc(N2CC[S+]([O-])CC2)cc1; 155 to 156 °C
4) O=C1O[C@@H](CNC(=S)C(F)F)CN1c1cc(F)c(N2CCS(=O)(=O)CC2)c(F)c1; 88 to 90 °C
5) O=C1O[C@@H](CNC(=S)C(F)F)CN1c1ccc(N2CCCS(=O)(=O)CC2)c(F)c1; 128 to 130 °C
6) O=C1O[C@@H](CNC(=S)C(F)F)CN1c1ccc(C2CCS(=O)(=O)CC2)cc1; 174 to 176 °C
7) O=C1O[C@@H](CNC(=S)C(F)F)CN1c1cc(F)c(C2CCS(=O)(=O)CC2)c(F)c1; 126 to 128 °C
8) O=C1O[C@@H](CNC(=S)C(F)F)CN1c1ccc(N2CCS(=O)(=O)CC2)cc1; 126 to 127 °C
